Biological target: Recombinant Hepatic Lipase (Homo sapiens, UniProt P11150)
Construct: made in house; host or cells: AV12 cells
Sequence (P11150 23-499): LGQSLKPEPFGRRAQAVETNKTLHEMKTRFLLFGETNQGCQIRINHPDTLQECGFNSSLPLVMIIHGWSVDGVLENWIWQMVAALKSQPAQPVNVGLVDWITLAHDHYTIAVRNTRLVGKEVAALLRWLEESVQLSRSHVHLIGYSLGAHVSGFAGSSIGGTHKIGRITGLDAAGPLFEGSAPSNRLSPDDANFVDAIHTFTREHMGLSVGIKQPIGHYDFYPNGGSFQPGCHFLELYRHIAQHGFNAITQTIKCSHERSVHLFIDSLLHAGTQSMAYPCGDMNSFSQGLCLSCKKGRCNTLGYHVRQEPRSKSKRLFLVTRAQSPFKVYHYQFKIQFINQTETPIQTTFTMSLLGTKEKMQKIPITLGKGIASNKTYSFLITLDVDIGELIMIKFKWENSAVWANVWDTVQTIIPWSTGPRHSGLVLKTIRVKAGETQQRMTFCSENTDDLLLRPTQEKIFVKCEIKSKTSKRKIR
Assay: Hepatic Lipase Phospholipase Assay (ThioPEG substrate, DTNB read at 412 nm)
Assay type: biochemical
Details: recombinant HL 12.5 nM, 37° C., pH 8.3, read-out: IC50 (nM), hepatic lipase inhibition assay
Measurement name: IC50
Answer format reminder: number followed by unit.

The value of IC50 measured for the compound `O=C(NCc1ccccc1)n1oc2ccccc2c1=O` turned out to be 60 nM

----------
melting point reference

Known melting point results, listed for orientation:
{"columns": ["Structure", "Measurement name", "Experimental value"],
 "data": [
  ["O=C(NCc1ccccc1C(F)(F)F)n1oc2ccccc2c1=O", "melting point", "139 to 141 °C"],
  ["Cc1cccc(C(C)C)c1CNC(=O)n1oc2ccccc2c1=O", "melting point", "112 to 114 °C"],
  ["COc1cccc(CNC(=O)n2oc3ccccc3c2=O)c1", "melting point", "99 to 100 °C"],
  ["CCNC(=O)n1oc2ccccc2c1=O", "melting point", "112 to 113 °C"],
  ["CC(C)CCCCNC(=O)n1oc2ccccc2c1=O", "melting point", "73 to 75 °C"],
  ["CCOc1ccc(CNC(=O)n2oc3ccccc3c2=O)cc1", "melting point", "110 to 112 °C"],
  ["COc1ccc(CNC(=O)n2oc3ccccc3c2=O)cc1", "melting point", "140 to 141 °C"],
  ["Cc1cccc(CNC(=O)n2oc3ccccc3c2=O)c1", "melting point", "110 to 112 °C"]
]}

The value of melting point measured for the molecule `CCCCCCNC(=O)n1oc2ccccc2c1=O` turned out to be 46 to 48 °C

The value of melting point measured for the molecule `CCOc1ccccc1CNC(=O)n1oc2ccccc2c1=O` turned out to be 110 to 112 °C

The value of melting point measured for the molecule `O=C(NCCc1ccccc1)n1oc2ccccc2c1=O` turned out to be 106 to 107 °C

----------
melting point reference

{"columns": ["Structure", "melting point"],
 "data": [
  ["Cc1ccccc1CNC(=O)n1oc2ccccc2c1=O", "154 to 155 °C"],
  ["CCc1cccc(CNC(=O)n2oc3ccccc3c2=O)c1", "72 to 73 °C"],
  ["CCOc1cccc(CNC(=O)n2oc3ccccc3c2=O)c1", "89 to 90 °C"]
]}

Could you now consider this next compound?
The value of melting point measured for the compound `CC(C)(C)c1ccc(CNC(=O)n2oc3ccccc3c2=O)cc1` turned out to be 123 to 125 °C
